Values compiled from patent US20230012273A1.

Known kon of a selection of binders
measuredTarget: T1, Human SIRPαV2 (CAA71403.1), Extracellular Domain + His-Tag (human, UniProt P78324 31-373)
T1 construct: also called huSIRPαV2; hSIRPαV2; not shown: His-Tag
T1 sequence (P78324 other isoform, or with tags, fused parts or gaps): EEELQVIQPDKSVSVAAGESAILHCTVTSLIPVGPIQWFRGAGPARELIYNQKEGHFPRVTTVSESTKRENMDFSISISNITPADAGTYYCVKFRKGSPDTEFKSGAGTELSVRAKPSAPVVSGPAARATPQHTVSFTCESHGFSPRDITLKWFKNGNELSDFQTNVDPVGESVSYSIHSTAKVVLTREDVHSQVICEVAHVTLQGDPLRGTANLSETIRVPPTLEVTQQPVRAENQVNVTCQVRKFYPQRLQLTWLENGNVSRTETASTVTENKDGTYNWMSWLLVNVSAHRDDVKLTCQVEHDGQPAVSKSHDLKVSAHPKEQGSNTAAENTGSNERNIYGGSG
experimentDescription: SPR, antibody captured on Protein A/G, ECD-His analyte, 1:1 fit
measuredEndpoint: kon

>  <binder>
Antibody A9 (antibody, human IgG1, kappa, L234A L235A, V domains shown) VH: EVQLVESGGGLVQPGGSLRLSCAASGFTLSSYDMHWVRQAPGKGLEWVSAIGTAGDTYYTGSVKGRFTISRENAKNSLYLQMNSLRADDTAVYYCVRGGVWDDAFDIWGQGTMVTVSS VL: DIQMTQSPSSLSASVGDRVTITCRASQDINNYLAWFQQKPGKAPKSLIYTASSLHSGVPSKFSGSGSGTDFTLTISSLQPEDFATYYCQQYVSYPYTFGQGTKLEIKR

>  <result>
791000 M⁻¹ s⁻¹

$$$$
>  <binder>
Antibody A2 (antibody, human IgG1, kappa, L234A L235A, V domains shown) VH: EVQLVESGGGLVQPGGSLRLSCAASGFTLSSYDMHWVRQATGKGLEWVSAIGTAGDTYYTGSVKGRFTISRENAKNSLYLQMNSLRAADTAVYYCVRGGVWDDAFDIWGQGTMVTVSS VL: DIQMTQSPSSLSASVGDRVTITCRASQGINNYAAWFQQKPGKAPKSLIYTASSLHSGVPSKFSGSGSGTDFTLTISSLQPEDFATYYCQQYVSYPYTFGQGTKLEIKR

>  <result>
883000 M⁻¹ s⁻¹

$$$$
>  <binder>
Antibody A6 (antibody, human IgG1, kappa, L234A L235A, V domains shown) VH: EVQLVESGGGLVQPGGSLRLSCAASGFTLSSYDMHWVRQAPGKGLEWVSAIGTAGDTYYTGSVKGRFTISRENAKNSLYLQMNSLRAEDTAVYYCVRGGVWDDAFDIWGQGTMVTVSS VL: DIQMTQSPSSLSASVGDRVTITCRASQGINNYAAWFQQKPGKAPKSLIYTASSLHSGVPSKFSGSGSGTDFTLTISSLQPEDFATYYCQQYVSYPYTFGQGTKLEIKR

>  <result>
947000 M⁻¹ s⁻¹

$$$$
>  <binder>
Antibody A5 (antibody, human IgG1, kappa, L234A L235A, V domains shown) VH: EVQLVESGGGLVQPGGSLRLSCAASGFTLSSYDMHWVRQAPGKGLEWVSAIGTAGDTYYTGSVKGRFTISRENAKNSLYLQMNSLRASDTAVYYCVRGGVWDDAFDIWGQGTMVTVSS VL: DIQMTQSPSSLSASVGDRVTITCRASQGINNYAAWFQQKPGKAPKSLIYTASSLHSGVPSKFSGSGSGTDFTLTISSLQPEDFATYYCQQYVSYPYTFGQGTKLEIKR

>  <result>
909000 M⁻¹ s⁻¹

$$$$
>  <binder>
Antibody A16 (antibody, human IgG1, kappa, L234A L235A, V domains shown) VH: EVQLVESGGGLVQPGGSLRLSCAASGFTLSSYDMHWVRQAPGKGLEWVSAIGTAGDTYYTGSVKGRFTISRENAKNSLYLQMNSLRAGDTAVYYCVRGGVWDDAFDIWGQGTMVTVSS VL: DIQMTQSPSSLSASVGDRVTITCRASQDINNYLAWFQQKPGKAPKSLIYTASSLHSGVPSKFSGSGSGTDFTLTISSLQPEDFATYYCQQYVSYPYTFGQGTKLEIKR

>  <result>
766000 M⁻¹ s⁻¹

$$$$
>  <binder>
Antibody E18 (antibody, human IgG1, kappa, L234A L235A, V domains shown) VH: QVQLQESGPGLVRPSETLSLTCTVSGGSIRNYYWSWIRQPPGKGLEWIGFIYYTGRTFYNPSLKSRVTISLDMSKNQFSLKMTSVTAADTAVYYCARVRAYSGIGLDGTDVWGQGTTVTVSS VL: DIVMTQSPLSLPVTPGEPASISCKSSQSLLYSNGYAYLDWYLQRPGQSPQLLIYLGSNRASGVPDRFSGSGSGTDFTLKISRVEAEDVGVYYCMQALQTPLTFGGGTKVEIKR

>  <result>
493000 M⁻¹ s⁻¹

$$$$
>  <binder>
Antibody E20 (antibody, human IgG1, kappa, L234A L235A, V domains shown) VH: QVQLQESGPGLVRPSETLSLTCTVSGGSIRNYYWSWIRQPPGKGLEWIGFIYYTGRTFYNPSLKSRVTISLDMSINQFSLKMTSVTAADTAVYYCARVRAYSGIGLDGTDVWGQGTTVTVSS VL: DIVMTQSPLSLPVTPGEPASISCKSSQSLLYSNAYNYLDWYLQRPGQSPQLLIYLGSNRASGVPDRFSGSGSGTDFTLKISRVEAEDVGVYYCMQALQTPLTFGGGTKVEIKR

>  <result>
563000 M⁻¹ s⁻¹

$$$$
>  <binder>
Antibody E3 (antibody, human IgG1, kappa, L234A L235A, V domains shown) VH: QVQLQESGPGLVRPSETLSLTCTVSGGSIRNYYWSWIRQPPGKGLEWIGFIYYNGRTFYNPSLKSRVTISLDMSKNQFSLKMTSVTAADTAVYYCARVRAYSGIGLDGTDVWGQGTTVTVSS VL: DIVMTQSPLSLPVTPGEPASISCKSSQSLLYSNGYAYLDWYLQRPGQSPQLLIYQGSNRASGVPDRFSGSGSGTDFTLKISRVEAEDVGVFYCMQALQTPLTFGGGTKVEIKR

>  <result>
472000 M⁻¹ s⁻¹

$$$$
>  <binder>
Antibody E12 (antibody, human IgG1, kappa, L234A L235A, V domains shown) VH: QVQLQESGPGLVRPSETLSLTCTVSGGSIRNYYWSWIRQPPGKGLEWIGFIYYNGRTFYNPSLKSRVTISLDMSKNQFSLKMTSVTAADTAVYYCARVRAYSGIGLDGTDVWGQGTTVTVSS VL: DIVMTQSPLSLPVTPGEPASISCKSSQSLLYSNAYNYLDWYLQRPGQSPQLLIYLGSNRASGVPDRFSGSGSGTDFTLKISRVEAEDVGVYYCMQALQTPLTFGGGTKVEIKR

>  <result>
562000 M⁻¹ s⁻¹

$$$$
>  <binder>
Antibody E4 (antibody, human IgG1, kappa, L234A L235A, V domains shown) VH: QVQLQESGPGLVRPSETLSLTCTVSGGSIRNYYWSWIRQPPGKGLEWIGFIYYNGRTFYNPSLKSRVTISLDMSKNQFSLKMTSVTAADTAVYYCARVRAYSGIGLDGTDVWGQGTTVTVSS VL: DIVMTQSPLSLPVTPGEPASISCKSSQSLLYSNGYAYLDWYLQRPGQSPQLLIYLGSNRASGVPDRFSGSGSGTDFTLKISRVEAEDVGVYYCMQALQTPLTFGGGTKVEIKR

>  <result>
511000 M⁻¹ s⁻¹

$$$$
